molecular target: acetylcholine receptor; assay: SPR, AchR immobilised on CM5 chip, peptide 10 uM
MEASURED QUANTITY: Binding affinity (RU)
All answers are understood in RU, so give the number only.

Specify measured Binding affinity (RU) for RCPFRK [6mer-2-769] .
13
